protocolDescription: in vitro
measurementSetup: human, MDCK-MDR1
measuredMetric: Papp at 1 h

Request: # input molecule: "OC[C@@H](O)[C@@H](O)[C@H](O)[C@H](O)CO" ; wanted: its Papp at 1 h
Result: ~0.5 ×10⁻⁶ cm/s

====

assaySystem: P-gp (L-MDR1 cells) (Homo sapiens, UniProt P08183)
Sequence (P08183 whole entry): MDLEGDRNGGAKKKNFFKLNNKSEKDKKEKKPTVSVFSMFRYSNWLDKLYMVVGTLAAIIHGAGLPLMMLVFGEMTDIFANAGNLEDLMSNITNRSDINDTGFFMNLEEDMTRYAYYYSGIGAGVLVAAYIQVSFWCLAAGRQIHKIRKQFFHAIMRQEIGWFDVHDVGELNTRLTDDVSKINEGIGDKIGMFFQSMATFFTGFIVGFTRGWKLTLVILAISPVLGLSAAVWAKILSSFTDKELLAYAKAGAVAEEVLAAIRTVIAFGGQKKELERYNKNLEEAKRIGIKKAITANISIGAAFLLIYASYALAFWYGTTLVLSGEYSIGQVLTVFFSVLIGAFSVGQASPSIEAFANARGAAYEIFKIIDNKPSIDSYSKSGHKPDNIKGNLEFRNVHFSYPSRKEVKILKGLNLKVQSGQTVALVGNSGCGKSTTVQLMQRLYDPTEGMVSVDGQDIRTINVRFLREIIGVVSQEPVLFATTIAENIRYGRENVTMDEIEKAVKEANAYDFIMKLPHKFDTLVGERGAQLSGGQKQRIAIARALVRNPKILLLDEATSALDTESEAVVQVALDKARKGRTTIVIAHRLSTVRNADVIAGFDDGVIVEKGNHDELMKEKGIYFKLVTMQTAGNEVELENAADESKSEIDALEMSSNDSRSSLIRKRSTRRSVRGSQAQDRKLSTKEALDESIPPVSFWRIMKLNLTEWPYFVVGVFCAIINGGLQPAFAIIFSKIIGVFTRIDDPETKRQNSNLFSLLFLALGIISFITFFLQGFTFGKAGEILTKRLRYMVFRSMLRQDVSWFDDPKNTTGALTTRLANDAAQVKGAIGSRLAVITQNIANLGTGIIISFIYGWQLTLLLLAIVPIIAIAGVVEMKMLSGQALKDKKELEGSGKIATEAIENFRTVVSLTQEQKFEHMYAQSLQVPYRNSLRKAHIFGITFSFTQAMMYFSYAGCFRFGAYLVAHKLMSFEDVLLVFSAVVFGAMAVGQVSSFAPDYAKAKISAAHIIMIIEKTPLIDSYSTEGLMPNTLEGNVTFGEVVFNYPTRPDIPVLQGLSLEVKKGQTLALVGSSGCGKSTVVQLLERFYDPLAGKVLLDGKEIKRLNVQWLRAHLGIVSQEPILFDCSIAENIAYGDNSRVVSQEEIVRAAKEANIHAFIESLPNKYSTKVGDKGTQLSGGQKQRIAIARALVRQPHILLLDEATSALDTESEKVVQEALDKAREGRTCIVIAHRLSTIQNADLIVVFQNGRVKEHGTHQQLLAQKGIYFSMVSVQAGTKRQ
protocolDescription: Bidirectional transport study in L-MDR1 cells
Type: in vitro ADME
measurementSetup: LLC-PK1
measuredMetric: Papp at 1 h

Request: # input compound: "OC[C@@H](O)[C@@H](O)[C@H](O)[C@H](O)CO" ; wanted: its Papp at 1 h
Result: ~1.2 ×10⁻⁶ cm/s
